Recorded values, source patent US20120149881A1.

Target: T1, human IgE CH3-CH4-M1′/Fc fusion protein (human)
T1 construct: also called M1′ (immobilized)
T1 sequence (chain, as listed by the source limits assumed): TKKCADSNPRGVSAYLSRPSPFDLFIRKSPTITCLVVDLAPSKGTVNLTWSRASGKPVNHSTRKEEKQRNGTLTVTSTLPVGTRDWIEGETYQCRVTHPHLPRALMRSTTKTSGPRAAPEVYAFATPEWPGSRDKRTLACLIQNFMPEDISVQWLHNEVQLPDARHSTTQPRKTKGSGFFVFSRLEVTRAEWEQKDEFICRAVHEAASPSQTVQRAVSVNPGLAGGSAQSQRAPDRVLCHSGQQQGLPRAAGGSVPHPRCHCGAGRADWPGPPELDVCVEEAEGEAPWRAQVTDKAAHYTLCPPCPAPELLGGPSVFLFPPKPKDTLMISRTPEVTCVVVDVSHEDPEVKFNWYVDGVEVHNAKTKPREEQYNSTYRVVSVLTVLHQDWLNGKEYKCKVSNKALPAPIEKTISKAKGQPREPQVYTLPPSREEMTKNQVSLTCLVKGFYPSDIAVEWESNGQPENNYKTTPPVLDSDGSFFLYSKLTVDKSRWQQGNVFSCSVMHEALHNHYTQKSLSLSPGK
Test: SPR Biacore A100, M1′ immobilized
Readout label: pKd
Give bare numbers, as −log10 of the molar value.

For orientation, consider the following solved cases.
[
  {
    "Binder": "humanized anti-IgE/M1′ antibody 47H4.v3 (antibody, V domains shown, produced as IgG) VH: EVQLVESGGGLVQPGGSLRLSCAASGFTFSDYGIAWVRQAPGKGLEWVAFISDLAYTIYYADTVTGRFTISRDNSKNTLYLQMNSLRAEDTAVYYCARDNWDALDYWGQGTLVTVSS VL: DIQMTQSPSSLSASVGDRVTITCRSSQSLVHNNGNTYLHWYQQKPGKAPKLLIYKVSNRFSGVPSRFSGSGSGTDFTLTISSLQPEDFATYYCSQNTLVPWTFGQGTKVEIKR",
    "Readout label": "pKd",
    "Test value": 7.16
  },
  {
    "Binder": "murine anti-IgE/M1′ antibody 47H4 (antibody, V domains shown, mIgG1 hybridoma antibody; also called mu47H4; 47H4 mIgG1) VH: EVKLVESGGGLVQPGGSRKLSCAASGFTFSDYGMAWVRQAPGKGPEWVAFISDLAYTIYYADTVTGRFTISRENAKNTLYLEMSSLRSEDTALYYCARDNWDAMDYWGQGTSVTVSS VL: DIVLTQTPLSLPVSLGDQASISCRSSQSLVHNNGNTYLHWYLQKPGQSPKLLIYKVSNRFSGVPDRFSGSGSGTDFTLKISRLEAEDLGVYFCSQNTLVPWTFGGGTKVEIKR",
    "Readout label": "pKd",
    "Test value": 8.25
  },
  {
    "Binder": "murine anti-IgE/M1′ antibody 26A11 (antibody, V domains shown, mIgG1 hybridoma antibody; also called mu26A11; 26A11 mIgG1) VH: EVQLQQSGPELVKPGASVKMSCKASGYTFTDYYMMWVKQSHGKSLEWIGDINPNNYDTSYNQKFKGKATLTVDKSSSTAYIQLNSLTSEDSAVYYCASKAYWGQGTLVTVSA VL: DIQMTQTTSSLSASLGDRVTITCRSSQDISNSLNWYQQKPDGPVKLLIYSTSRLHSGVPSRFSGSGSGTDYSLTISNLEQEDLATYFCQQGHTLPWTFGGGTKVEIKR",
    "Readout label": "pKd",
    "Test value": 9.52
  }
]

Shift focus to the following entry.
Problem: Value lookup for pKd; key = humanized anti-IgE/M1′ antibody 7A6.v1 (antibody, V domains shown, direct CDR graft, huIgG1; also called 7A6v1 huIgG1; 7A67v1 [sic]) VH: EVQLVESGGGLVQPGGSLRLSCAASGYTFIDYEMHWVRQAPGKGLEWVGAIDPETGTTAYNQKFKGRFTISADTSKNTAYLQMNSLRAEDTAVYYCTRLRPHYDYDNAMDSWGQGTLVTVSS VL: DIQMTQSPSSLSASVGDRVTITCKSSQTLLYSTNQKNYLAWYQQKPGKAPKLLIYWASTRESGVPSRFSGSGSGTDFTLTISSLQPEDFATYYCQQYYSYPYTFGQGTKVEIKR
Result: 7.82
